# Tested on: muMax20 (Max(13-93) K31hArg/K57hArg, M65Nle)
# PROTOCOL_TEXT: PBM 8-mer E-score (E-score (rank enrichment, -0.5 to 0.5)); higher = stronger preferential binding
The full ranking holds about 33,000 sequences; the median of “E-score (rank enrichment, -0.5 to 0.5)” is about -0.0068, and the highest 2% start at about 0.24. The sample holds the highest values, similar sequences and a random draw of the others, so the mix is not that of the screen.
Class (by PBM 8-mer E-score) -- bin A: < 0.02; bin B: ≥ 0.02 and < 0.2; bin C: ≥ 0.2

Returns: class label. Input: CCAGGAAC
bin A

Returns: class label. Input: ACGTTATC
bin B

Returns: class label. Input: GTGACACA
bin B

Returns: class label. Input: ATGACACA
bin B

Returns: class label. Input: TACACATA
bin C

Returns: class label. Input: AAGACACA
bin B

Returns: class label. Input: ATCTGGAG
bin A

Returns: class label. Input: CAAAGATG
bin B

Returns: class label. Input: AGACCTGG
bin A

Returns: class label. Input: AAATCCGT
bin A

Returns: class label. Input: ATGACACG
bin C

Returns: class label. Input: GCCTCTCC
bin B

Returns: class label. Input: AGAACTCC
bin A

Returns: class label. Input: ACGTTATG
bin C

Returns: class label. Input: ACGTTATA
bin C

Returns: class label. Input: CAGACACG
bin A

Returns: class label. Input: AAAAGACC
bin B

Returns: class label. Input: AATACAAA
bin C

Returns: class label. Input: AGTTCACC
bin A

Returns: class label. Input: GATACAAA
bin B

---

So I've got a bunch of sequences here, and I need their PBM 8-mer E-score values.
# System: muMax20 (Max(13-93) K31hArg/K57hArg, M65Nle)
# PROTOCOL_TEXT: PBM 8-mer E-score (E-score (rank enrichment, -0.5 to 0.5)); higher = stronger preferential binding
Over roughly 33,000 sequences, “E-score (rank enrichment, -0.5 to 0.5)” has its median near -0.0068; the highest 2% begin near 0.24. The list comes from a sample in which the highest values are over-represented; it also holds close analogues and randomly drawn sequences.
Just the number, please, no unit after it.

Any idea what its PBM 8-mer E-score is? The sequence is ACATGAAG
0.0775

Any idea what its PBM 8-mer E-score is? The sequence is CCGTTTCC
0.0806

Any idea what its PBM 8-mer E-score is? The sequence is ACATGAGT
0.0854

Any idea what its PBM 8-mer E-score is? The sequence is AATAACAT
0.256

Any idea what its PBM 8-mer E-score is? The sequence is CGACGTGC
-0.0517

Any idea what its PBM 8-mer E-score is? The sequence is ACTAACAA
0.236

Any idea what its PBM 8-mer E-score is? The sequence is CCATAACA
0.141

Any idea what its PBM 8-mer E-score is? The sequence is ACATGAAC
0.0854

Any idea what its PBM 8-mer E-score is? The sequence is ACATGAGA
0.253

Any idea what its PBM 8-mer E-score is? The sequence is ATCGCGGG
-0.145

Any idea what its PBM 8-mer E-score is? The sequence is ACGTTTGC
0.0313

Any idea what its PBM 8-mer E-score is? The sequence is AGTAACAT
0.289

Any idea what its PBM 8-mer E-score is? The sequence is CGACGTGA
0.124

Any idea what its PBM 8-mer E-score is? The sequence is AATAACCA
0.076

Any idea what its PBM 8-mer E-score is? The sequence is TCCGCACA
-0.187

Any idea what its PBM 8-mer E-score is? The sequence is TATAACAA
0.258

Any idea what its PBM 8-mer E-score is? The sequence is TCAGTAAA
0.013

Any idea what its PBM 8-mer E-score is? The sequence is CCACGTAG
-0.156

Any idea what its PBM 8-mer E-score is? The sequence is AGCCAGCC
-0.293

Any idea what its PBM 8-mer E-score is? The sequence is AGTAACAA
0.117

Any idea what its PBM 8-mer E-score is? The sequence is ACATGAAT
0.24

Any idea what its PBM 8-mer E-score is? The sequence is AATAACAA
0.271

Attribution: the supplement of paper PMC12636033
